Items are presented alongside their recorded relative viability.
# Tested on: NCI-H2347
# protocolNotes: relative viability (nuclei count vs DMSO), 5 days (fraction); higher = more cells survive
# recordedConditions: first compound 0.01 µM
Could you keep your reply to the number by itself?

Below, each entry is followed by its recorded relative viability result.
q: Report value only: relative viability, NCI-H2347, O=c1cc(N2CCOCC2)oc2c(-c3cccc4c3sc3ccccc34)cccc12 + CC(=O)Nc1cccc(-n2c(=O)n(C3CC3)c(=O)c3c(Nc4ccc(I)cc4F)n(C)c(=O)c(C)c32)c1 [Trametinib] (partner 0.02 µM)
a: 0.263

q: Report value only: relative viability, NCI-H2347, CCN(CC)CCCCNc1ncc2cc(-c3cc(OC)cc(OC)c3)c(NC(=O)NC(C)(C)C)nc2n1 + CC(C)C[C@H](NC(=O)[C@H](Cc1ccccc1)NC(=O)c1cnccn1)B(O)O [Bortezomib] (partner 0.002 µM)
a: 0.855

q: Report value only: relative viability, NCI-H2347, O=c1cc(N2CCOCC2)oc2c(-c3cccc4c3sc3ccccc34)cccc12 + CS(=O)(=O)N1CCN(Cc2cc3nc(-c4cccc5[nH]ncc45)nc(N4CCOCC4)c3s2)CC1 [Pictilisib] (partner 1 µM)
a: 0.671

Below: the item to evaluate.
q: Report value only: relative viability, NCI-H2347, CCN(CC)CCCCNc1ncc2cc(-c3cc(OC)cc(OC)c3)c(NC(=O)NC(C)(C)C)nc2n1 + Cc1nc(Nc2ncc(C(=O)Nc3c(C)cccc3Cl)s2)cc(N2CCN(CCO)CC2)n1 [Dasatinib] (partner 0.075 µM)
a: 0.149

----------
# System: NCI-H1755
# protocolNotes: relative viability (nuclei count vs DMSO), 5 days (fraction); higher = more cells survive
# recordedConditions: first compound 1 µM
assayReadout: relative viability

q: Report value only: relative viability, NCI-H1755, O=c1cc(N2CCOCC2)oc2c(-c3cccc4c3sc3ccccc34)cccc12 + Cc1nc(NC(=O)N2CCC[C@H]2C(N)=O)sc1-c1ccnc(C(C)(C)C(F)(F)F)c1 [Alpelisib] (partner 2 µM)
a: 0.894

Others:
q: Report value only: relative viability, NCI-H1755, O=c1cc(N2CCOCC2)oc2c(-c3cccc4c3sc3ccccc34)cccc12 + C[C@]1(O)C[C@@H](c2nc(-c3ccc4ccc(-c5ccccc5)nc4c3)c3c(N)nccn32)C1 [Linsitinib] (partner 1 µM)
a: 1.01

q: Report value only: relative viability, NCI-H1755, O=c1cc(N2CCOCC2)oc2c(-c3cccc4c3sc3ccccc34)cccc12 + NC(=O)Nc1cc(-c2cccc(F)c2)sc1C(=O)N[C@H]1CCCNC1 [AZD7762] (partner 0.2 µM)
a: 0.487

q: Report value only: relative viability, NCI-H1755, CCN(CC)CCCCNc1ncc2cc(-c3cc(OC)cc(OC)c3)c(NC(=O)NC(C)(C)C)nc2n1 + N=C(N)NC(=N)NCCc1ccccc1 [Phenformin] (partner 250 µM)
a: 0.585

q: Report value only: relative viability, NCI-H1755, CCN(CC)CCCCNc1ncc2cc(-c3cc(OC)cc(OC)c3)c(NC(=O)NC(C)(C)C)nc2n1 + C[C@@H](Oc1cc(-c2cnn(C3CCNCC3)c2)cnc1N)c1c(Cl)ccc(F)c1Cl [Crizotinib] (partner 1 µM)
a: 0.892
